Recorded pIC50 for the following compounds
biological target: canine COX-1 (Canis lupus familiaris); assay: Canine COX-1 activity: washed canine platelets, A23187-stimulated TXB2 by EIA; details: results of repeated tests averaged
Sequence (Q8HZR1 28-603): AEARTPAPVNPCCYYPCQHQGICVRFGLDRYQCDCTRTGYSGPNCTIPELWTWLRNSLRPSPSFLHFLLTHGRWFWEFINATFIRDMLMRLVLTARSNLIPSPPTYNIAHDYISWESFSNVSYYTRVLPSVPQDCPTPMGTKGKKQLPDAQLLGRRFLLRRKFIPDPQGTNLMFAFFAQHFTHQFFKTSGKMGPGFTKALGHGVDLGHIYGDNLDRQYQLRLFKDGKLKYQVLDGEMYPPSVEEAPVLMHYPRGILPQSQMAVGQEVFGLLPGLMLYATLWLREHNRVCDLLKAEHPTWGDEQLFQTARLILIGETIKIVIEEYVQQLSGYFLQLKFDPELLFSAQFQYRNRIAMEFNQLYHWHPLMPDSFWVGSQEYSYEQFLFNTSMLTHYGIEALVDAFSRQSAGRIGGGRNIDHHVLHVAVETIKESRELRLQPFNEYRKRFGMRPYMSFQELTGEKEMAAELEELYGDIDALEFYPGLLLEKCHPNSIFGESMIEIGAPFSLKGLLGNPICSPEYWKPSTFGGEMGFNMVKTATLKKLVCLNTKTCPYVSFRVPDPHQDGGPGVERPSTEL
pIC50: −log10 of the molar value.

[
  {
    "compound": "Cc1cccc(Nc2ccccc2C(=O)O)c1C",
    "boundType": "=",
    "pIC50": 6.39
  },
  {
    "compound": "Cc1c(Nc2ncccc2C(=O)O)cccc1C(F)(F)F",
    "boundType": "=",
    "pIC50": 8.11
  },
  {
    "compound": "NC(=O)N1C(=O)C(C(=O)c2cccs2)c2cc(F)c(Cl)cc21 (stereo not shown)",
    "boundType": "=",
    "pIC50": 6.33
  },
  {
    "compound": "CC(C(=O)O)c1ccc2c(c1)[nH]c1ccc(Cl)cc12 (racemic) [Carprofen (rac.)]",
    "boundType": "=",
    "pIC50": 4.88
  },
  {
    "compound": "O=C(O)Cc1ccc(-c2ccccc2)cc1 [Felbinac, [1,1′-biphenyl]-4-acetic acid]",
    "boundType": "=",
    "pIC50": 5.60
  },
  {
    "compound": "Cc1ccc(Cl)c(Nc2ccccc2C(=O)O)c1Cl",
    "boundType": "=",
    "pIC50": 6.13
  },
  {
    "compound": "CC(C(=O)O)c1ccc(-c2ccccc2)c(F)c1 (stereo not shown)",
    "boundType": "=",
    "pIC50": 6.30
  },
  {
    "compound": "CC(=O)Oc1ccccc1C(=O)O",
    "boundType": "=",
    "pIC50": 4.46
  },
  {
    "compound": "CCc1cccc2c3c([nH]c12)C(CC)(CC(=O)O)OCC3 (stereo not shown)",
    "boundType": "=",
    "pIC50": 5.88
  },
  {
    "compound": "O=C(O)c1cccnc1Nc1cccc(C(F)(F)F)c1",
    "boundType": "=",
    "pIC50": 5.99
  },
  {
    "compound": "CS(=O)(=O)Nc1ccc([N+](=O)[O-])cc1OC1CCCCC1",
    "boundType": "=",
    "pIC50": 6.23
  },
  {
    "compound": "C[C@@H](C(=O)O)c1ccc2c(c1)[nH]c1ccc(Cl)cc12 [Carprofen (R-)]",
    "boundType": "<",
    "pIC50": 4.60
  },
  {
    "compound": "CN1C(C(=O)Nc2ccccn2)=C(O)c2ccccc2S1(=O)=O",
    "boundType": "=",
    "pIC50": 6.65
  },
  {
    "compound": "C[C@H](C(=O)O)c1ccc2c(c1)[nH]c1ccc(Cl)cc12 [Carprofen (S-)]",
    "boundType": "=",
    "pIC50": 5.17
  },
  {
    "compound": "Cc1cnc(NC(=O)C2=C(O)c3ccccc3S(=O)(=O)N2C)s1",
    "boundType": "=",
    "pIC50": 6.05
  },
  {
    "compound": "NC(=O)N1C(=O)C(C(=O)c2cccs2)c2cc(Cl)ccc21 (stereo not shown)",
    "boundType": "=",
    "pIC50": 6.33
  },
  {
    "compound": "Cc1c(Cl)cccc1Nc1ccccc1C(=O)O",
    "boundType": "=",
    "pIC50": 6.69
  },
  {
    "compound": "O=C(O)c1ccccc1Nc1cccc(C(F)(F)F)c1",
    "boundType": "=",
    "pIC50": 5.64
  },
  {
    "compound": "COc1ccc2cc(CC(=O)O)ccc2c1",
    "boundType": "=",
    "pIC50": 4.55
  }
]

Hey, just so you know, these numbers are from patent US20030212123A1.
